target: VEGFR2 (Homo sapiens, UniProt P35968); construct: expressed in transfected cells; host or cells: CHO cells, pcDNA3.1 plasmid; assay: VEGFR2 cell-based assay (phospho-VEGFR2 ELISA, transfected CHO cells); conditions: compound at 100 nM, read-out: % VEGFR2 kinase activity remains
Sequence (P35968 20-1356, species assumed): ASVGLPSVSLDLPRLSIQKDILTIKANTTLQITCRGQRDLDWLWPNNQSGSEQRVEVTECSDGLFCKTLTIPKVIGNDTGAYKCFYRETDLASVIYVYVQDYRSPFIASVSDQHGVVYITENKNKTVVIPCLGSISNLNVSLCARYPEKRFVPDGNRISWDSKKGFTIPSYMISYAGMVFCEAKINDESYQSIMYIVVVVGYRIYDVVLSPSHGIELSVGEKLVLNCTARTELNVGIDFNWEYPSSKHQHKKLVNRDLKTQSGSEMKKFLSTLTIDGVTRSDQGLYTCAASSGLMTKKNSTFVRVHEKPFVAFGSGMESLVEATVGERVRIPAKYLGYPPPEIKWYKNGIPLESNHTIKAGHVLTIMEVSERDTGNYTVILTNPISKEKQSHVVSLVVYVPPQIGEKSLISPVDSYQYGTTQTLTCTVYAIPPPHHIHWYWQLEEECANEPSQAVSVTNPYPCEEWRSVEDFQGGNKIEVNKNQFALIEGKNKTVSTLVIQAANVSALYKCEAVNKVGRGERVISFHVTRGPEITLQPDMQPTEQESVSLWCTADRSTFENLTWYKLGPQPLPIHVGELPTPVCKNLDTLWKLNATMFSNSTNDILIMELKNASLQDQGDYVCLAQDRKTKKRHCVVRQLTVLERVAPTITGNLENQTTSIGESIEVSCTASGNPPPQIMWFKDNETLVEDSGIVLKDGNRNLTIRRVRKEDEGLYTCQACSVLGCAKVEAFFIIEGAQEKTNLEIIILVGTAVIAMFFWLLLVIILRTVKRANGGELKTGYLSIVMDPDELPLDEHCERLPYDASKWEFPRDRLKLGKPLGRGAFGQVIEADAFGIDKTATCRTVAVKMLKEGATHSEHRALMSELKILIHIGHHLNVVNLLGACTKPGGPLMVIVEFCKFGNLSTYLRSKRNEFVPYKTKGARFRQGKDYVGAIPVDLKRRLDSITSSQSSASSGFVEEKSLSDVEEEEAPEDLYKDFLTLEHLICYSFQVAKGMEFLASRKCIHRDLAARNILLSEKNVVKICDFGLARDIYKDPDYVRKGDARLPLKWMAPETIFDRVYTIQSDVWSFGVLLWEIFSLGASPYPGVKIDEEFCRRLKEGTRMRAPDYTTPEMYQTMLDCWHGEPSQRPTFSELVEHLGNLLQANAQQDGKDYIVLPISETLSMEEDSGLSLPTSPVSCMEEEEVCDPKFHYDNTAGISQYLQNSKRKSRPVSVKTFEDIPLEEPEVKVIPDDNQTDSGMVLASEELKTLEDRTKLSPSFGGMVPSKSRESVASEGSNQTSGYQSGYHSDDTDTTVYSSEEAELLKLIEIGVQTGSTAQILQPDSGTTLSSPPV
Structures can show the parent of a compound that is named as a salt.
As shown below, each of these compounds has a reported remaining activity at 0.1 µM value.

Past entries and their recorded results:
{"columns": ["Compound", "Target or system", "remaining activity at 0.1 µM"],
 "data": [
  ["COc1cccc(NC(=O)Nc2cccc3c2ccn3Cc2ccnc3[nH]ccc23)c1.Cl [Example 47, hydrochloride]", "VEGFR2 (Homo sapiens, UniProt P35968)", "< 70%"],
  ["Cl.O=C(Nc1ccc(F)cc1)Nc1cccc2c1ccn2Cc1ccnc2[nH]ccc12 [Example 36, hydrochloride]", "VEGFR2 (Homo sapiens, UniProt P35968)", "< 70%"],
  ["O=C(Nc1ccc(Cl)cc1)Nc1cccc2c1ccn2Cc1c[nH]c2ncccc12 [Example 10, hydrochloride]", "VEGFR2 (Homo sapiens, UniProt P35968)", "≥ 70%"],
  ["O=C(Nc1cccc(Cl)c1)Nc1cccc2c1ccn2Cc1c[nH]c2ncccc12 [Example 9, hydrochloride]", "VEGFR2 (Homo sapiens, UniProt P35968)", "< 70%"],
  ["Cl.O=C(Nc1ccccc1OC(F)(F)F)Nc1cccc2c1ccn2Cc1c[nH]c2ncccc12 [Example 20, hydrochloride]", "VEGFR2 (Homo sapiens, UniProt P35968)", "< 70%"]
]}

// lookup remaining activity at 0.1 µM for Cl.O=C(Nc1cccc(Br)c1)Nc1cccc2c1ccn2Cc1c[nH]c2ncccc12 [Example 12, hydrochloride] < 70%

// lookup remaining activity at 0.1 µM for Cl.O=C(Nc1cccc(C(F)(F)F)c1)Nc1cccc2c1ccn2Cc1c[nH]c2ncccc12 [Example 24, hydrochloride] < 70%

// lookup remaining activity at 0.1 µM for Cl.O=C(Nc1ccccc1F)Nc1cccc2c1ccn2Cc1c[nH]c2ncccc12 [Example 5, hydrochloride] ≥ 70%

// lookup remaining activity at 0.1 µM for Cl.O=C(Nc1ccc(Br)cc1)Nc1cccc2c1ccn2Cc1ccnc2[nH]ccc12 [Example 42, hydrochloride] < 70%

// lookup remaining activity at 0.1 µM for O=C(Nc1ccccc1Cl)Nc1cccc2c1ccn2Cc1c[nH]c2ncccc12 [Example 8, hydrochloride] ≥ 70%

// lookup remaining activity at 0.1 µM for Cl.O=C(Nc1cc(Cl)ccc1F)Nc1cccc2c1ccn2Cc1ccnc2[nH]ccc12 [Example 56, hydrochloride] ≥ 70%

// lookup remaining activity at 0.1 µM for Cc1c(F)cccc1NC(=O)Nc1cccc2c1ccn2Cc1ccnc2[nH]ccc12.Cl [Example 59, hydrochloride] < 70%

// lookup remaining activity at 0.1 µM for Cl.O=C(Nc1ccc(C(F)(F)F)cc1)Nc1cccc2c1ccn2Cc1c[nH]c2ncccc12 [Example 25, hydrochloride] ≥ 70%
